Record form. Attribute: Ratio CC50/IC50. Fill in for each entry.
Experiment: Selectivity index, ratio of CC50 for human HepG2.2.15 cells to IC50 for HBV infected in human HepG2.2.15 cells assessed as inhibition of DNA replication
Type: functional
Give the value as a plain number.

Note Ratio CC50/IC50 for the compound shown: "C=C1CC[C@@H]2[C@](C)(COC(=O)/C=C/c3ccccc3)[C@H](O)CC[C@@]2(C)[C@@H]1/C=C/C1=CCOC1=O"
15.5

Query Ratio CC50/IC50 for "C=C1CC[C@@H]2[C@](C)(C=O)[C@H](O)CC[C@@]2(C)[C@@H]1/C=C/C1=CCOC1=O"
9.1

Provide only the value of recorded Ratio CC50/IC50 for "C=C1CC[C@@H]2[C@](C)(COC(=O)/C=C/c3ccccc3)[C@H](O)CC[C@@]2(C)[C@@H]1C/C=C1\C=COC1=O"
5.8

Consider the compound "C=C1CC[C@@H]2[C@](C)(COC(C)=O)[C@H](O)CC[C@@]2(C)[C@@H]1/C=C/C1=CCOC1=O" and give its recorded Ratio CC50/IC50.
3.2

Report Ratio CC50/IC50 for "C=C1CC[C@@H]2[C@](C)(CO)[C@H](OC(C)=O)CC[C@@]2(C)[C@@H]1C/C=C1\C=COC1=O"
19.6

Dear colleague, please send me the reported Ratio CC50/IC50 for "C[C@]1(CO)[C@H]2CC[C@@]3(CO3)[C@@H](/C=C/C3=CCOC3=O)[C@]2(C)CC[C@H]1O" when you can.
23.6

Provide one value: measured Ratio CC50/IC50 of "C=C1CC[C@@H]2[C@](C)(CO)[C@H](OC(=O)/C=C/c3ccccc3)CC[C@@]2(C)[C@@H]1C/C=C1\C=COC1=O"
5.8

###

Test system: Hepatitis B virus
Test: Antiviral activity against HBV infected in human HepG2.2.15 cells assessed as inhibition of hepatitis B surface antigen secretion by ELISA
Format: functional, organism-based
Details: HepG2 2.2.15
Assignment: determine reported IC50 for the given compounds.
API: value field is a number in µM; no unit string.

Retrieve IC50 on Hepatitis B virus; query "C=C1CC[C@@H]2[C@](C)(CO)[C@H](OC(=O)c3ccccc3)CC[C@@]2(C)[C@@H]1C/C=C1\C=COC1=O"
877

Please indicate recorded IC50 of "C=C1CC[C@@H]2[C@](C)(COC(=O)CCC(=O)O)[C@H](OC(=O)CCC(=O)O)CC[C@@]2(C)[C@@H]1C/C=C1\C=COC1=O" measured with Hepatitis B virus.
1160

With Hepatitis B virus as the test system, provide measured IC50 for this compound: "C=C1CC[C@@H]2[C@](C)(COC(C)=O)[C@H](OC(C)=O)CC[C@@]2(C)[C@@H]1C/C=C1\C=COC1=O"
251

Give IC50; test system Hepatitis B virus; compound "C=C1CC[C@@H]2[C@](C)(CO)[C@H](OC(=O)c3cccs3)CC[C@@]2(C)[C@@H]1C/C=C1\C=COC1=O"
41

Lab note: Hepatitis B virus assay, enter IC50 for "C=C1CC[C@@H]2[C@](C)(COC(=O)c3cccs3)[C@H](O)CC[C@@]2(C)[C@@H]1C/C=C1\C=COC1=O" here
121

For Hepatitis B virus, give IC50 of the listed compound: "C=C1CC[C@@H]2[C@](C)(COC(=O)c3cccs3)[C@H](OC(=O)c3cccs3)CC[C@@]2(C)[C@@H]1C/C=C1\C=COC1=O"
1640

Give Hepatitis B virus IC50 for the following compound: "C=C1CC[C@@H]2[C@](C)(CO)[C@H](OC(=O)CCCC)CC[C@@]2(C)[C@@H]1C/C=C1\C=COC1=O"
625

Data provenance is ChEMBL document CHEMBL3259753.
